- Test system: HOP-92 NSCLC
- assay.text: NCI-60 one-dose screen, 48 h (100 = growth as untreated, 0 = no growth, -100 = all killed)
- condition.info: 10 µM unless noted
This is part of a sample that, as a whole, favours compounds with a hit. Of some 83,000 tested, about 20% had one in any assay.
Parameter growth: see the listing below.
metric: growth (%)

| compound | val |
| --- | --- |
| Cc1ncc(C(=O)Nc2ccc(CN3CCN(C)CC3)c(C(F)(F)F)c2)cc1C#Cc1cnc(N)cc1C#N | 17.3 |
| O=S(=O)(NCCNc1nccc(-c2c(-c3cccc(F)c3)nc3sccn23)n1)c1ccc(Cl)cc1 | 76.6 |
| CCCCCCCCCCCCCCCC[N+]1(C)CCN(SN2CC[N+](C)(CCCCCCCCCCCCCCCC)CC2)CC1 | 15.5 |
| COc1ccc(C(=O)c2nc3ccccc3n2CC(=O)c2ccc(Cl)cc2)cc1 | 54.4 |
| Cc1cnc(C(=O)Nc2nc3ccc(S(=O)(=O)Nc4ccc(C(C)(C)C)cc4)cc3[nH]2)cn1 | 37.4 |
| CCSCC1CC(O)(c2ccccc2)CC(c2ccc(F)cc2)O1 (stereo unspecified) | -9.6 |
| Nc1n[nH]c2cccc(C#Cc3cccc(C(=O)Nc4cc(CN5CCOCC5)cc(C(F)(F)F)c4)c3)c12 | -7.48 |
| CCN(CC)CC[n+]1cc2cc(OC)c(OC)cc2c2ccc3cc4c(cc3c21)OCO4 | 14.7 |
| N#Cc1c(NC(=O)NCc2ccccc2)sc2c1CCCC2 | 42 |
| O=c1[nH]nc(-c2ccccc2)c2sc3ncc(-c4ccc(Br)cc4)n3c12 | 65.3 |
| COc1ccc(-c2nc3sccn3c2/C=C/C(=O)c2ccc3c(c2)OCO3)cc1 | 82.8 |
| c1ccc2c(-c3nccs3)c[nH]c2c1 | 89.7 |
| CC(=O)c1cc2c(N)c(C(=O)Nc3cccc4ccncc34)sc2nc1C | 75.2 |
| O=C(/C=C(/C=C/c1coc2ccccc12)OB(F)F)/C=C/c1coc2ccccc12 | 91 |
| COc1ccc2c(c1)oc1c(C)c3c(c(C)c12)C(=O)N(CCN1CCOCC1)C3=O | 106 |
| [O-][n+]1c(Cl)cc(Cl)c2ccccc21 | 89.4 |
| NCCCCCCNc1cc(-c2cccc(OC(F)(F)F)c2)nc2ccc(N3CCCC3)cc12 | 39.3 |
| C=C1C(=O)O[C@H]2[C@H]1CC/C(COC(=O)NCc1c[nH]c3ccc(F)cc13)=C\CC[C@@]1(C)O[C@@H]21 | -18.1 |
| NC(=NCCCOc1ccc(F)cc1)Nc1ccc(I)cc1 | 69.8 |
| OC(c1ccc(F)c(C(F)(F)F)c1)c1cnccc1NC1CCCCC1 (stereo unspecified) | 40.2 |
| Cc1cc2nc3c4cc(C=O)ccc4n(CCN(C)C)c3nc2cc1C | 27 |
